# System under test: 20S proteasomes purified from a B-LCL cell line (immunoproteasomes) (Homo sapiens, UniProt P28062+P28065+P40306)
# Construct: 20S proteasomes were purified from a B-LCL cell line; endogenous in cells; purified after Groettrup et al. 1995
# Procedure text: In vitro proteasome mediated cleavage analysis
# Type: biochemical
# Parameters: key: intact epitope found in digestion fragments: (+), present; (-), not present
# Stated conditions: after 1 h digestion
Value type: Intact Fragment: intact epitope found in digestion fragments

Study these solved cases before continuing.
1) CC(C)C[C@H](NC(=O)[C@H](CCC(=O)O)NC(=O)[C@H](CCCNC(=N)N)NC(=O)[C@H](CC(C)C)NC(=O)[C@H](CCCNC(=N)N)NC(=O)[C@H](C)NC(=O)[C@H](Cc1c[nH]cn1)NC(=O)[C@H](CC(C)C)NC(=O)[C@H](Cc1ccc(O)cc1)NC(=O)[C@H](C)N)C(=O)O +
2) CC(C)C[C@H](NC(=O)[C@H](C)NC(=O)[C@H](CCC(N)=O)NC(=O)[C@H](CC(C)C)NC(=O)[C@H](CS)NC(=O)[C@H](CCC(N)=O)NC(=O)[C@H](CC(C)C)NC(=O)[C@H](CO)NC(=O)[C@@H](N)CC(C)C)C(=O)N[C@@H](Cc1ccc(O)cc1)C(=O)O -
3) CC(C)C[C@H](NC(=O)[C@@H](NC(=O)CNC(=O)[C@H](CC(C)C)NC(=O)[C@@H]1CCCN1C(=O)[C@H](CC(C)C)NC(=O)[C@H](CS)NC(=O)[C@@H](NC(=O)[C@H](Cc1ccccc1)NC(=O)[C@@H]1CCCN1)[C@@H](C)O)C(C)C)C(=O)O +
4) CC(C)C[C@H](NC(=O)[C@@H](N)CC(C)C)C(=O)N[C@@H](C)C(=O)N[C@@H](CCC(N)=O)C(=O)N[C@@H](CCC(=O)O)C(=O)N[C@H](C(=O)N[C@@H](CCCNC(=N)N)C(=O)N1CCC[C@H]1C(=O)N[C@@H](CCCNC(=N)N)C(=O)N[C@@H](CCCNC(=N)N)C(=O)O)C(C)C -

Any idea what Intact Fragment: intact epitope found in digestion fragments was measured for CC(C)C[C@H](NC(=O)[C@H](CC(C)C)NC(=O)[C@H](CC(C)C)NC(=O)[C@H](CCCNC(=N)N)NC(=O)[C@H](CCCNC(=N)N)NC(=O)[C@H](CC(C)C)NC(=O)[C@@H](N)CC(N)=O)C(=O)N[C@@H](CO)C(=O)N[C@@H](Cc1c[nH]cn1)C(=O)O ?
-

Would you mind telling me what Intact Fragment: intact epitope found in digestion fragments value was observed for CC(C)C[C@H](NC(=O)[C@@H](NC(=O)[C@@H]1CCCN1C(=O)[C@H](CC(C)C)NC(=O)[C@H](CCCCN)NC(=O)[C@H](Cc1c[nH]c2ccccc12)NC(=O)[C@@H](NC(=O)[C@@H](N)CS)[C@@H](C)O)[C@@H](C)O)C(=O)N[C@@H](C)C(=O)O ?
-

Which Intact Fragment: intact epitope found in digestion fragments reading was recorded for the molecule CC(C)C[C@H](NC(=O)[C@H](CCC(=O)O)NC(=O)[C@H](CS)NC(=O)[C@H](CC(C)C)NC(=O)[C@H](CC(C)C)NC(=O)[C@H](CCC(=O)O)NC(=O)[C@H](CCCNC(=N)N)NC(=O)[C@H](CC(C)C)NC(=O)[C@@H](N)CCCNC(=N)N)C(=O)O ?
-

Origin of values: patent US10450356B2
